Please provide measured Ka(T4) for the entries that follow.
- assayed.system: UniProt P02766
- method.notes: Ability to displace L-[125I]thyoxine from the high affinity prealbumin binding site was expressed as ratio of its apparent association constant to that of DL-thyroxine
One number for each entry, in %.

Each compound below has a reported value. Please supply its Ka(T4).
1. NC(Cc1cc(I)c(Oc2ccc(O)c3ccccc23)c(I)c1)C(=O)O (stereo unspecified)
2. NC(Cc1cc(I)c(Oc2cc(Br)c(O)c(Br)c2)c(I)c1)C(=O)O (stereo unspecified)
3. NC(Cc1cc(I)c(Oc2ccc(O)cc2)c(I)c1)C(=O)O (stereo unspecified)
4. NC(Cc1cc(I)c(Oc2cc(Br)c(O)c3ccccc23)c(I)c1)C(=O)O (stereo unspecified)
5. NC(Cc1cc(I)c(Oc2ccc(O)c(Br)c2)c(I)c1)C(=O)O (stereo unspecified)
6. NC(Cc1cc(I)c(Oc2cccc3c(O)cccc23)c(I)c1)C(=O)O (stereo unspecified)

[reply]
1: 1.6; 2: 8.6; 3: 0.3; 4: 28.7; 5: 1.6; 6: 6.3
